Mark each entry 1 if its melting point sits below 200 °C, and 0 for all others.

INSERT INTO results (molecule, label_class) VALUES
  ('COc1cc2c(N3CCN(C)CC3)nc(-c3cc(C(F)(F)F)cc(C(F)(F)F)c3)nc2c(OC)c1OC [Example 62]', 1),
  ('COc1cc2c(NCCN(C(C)C)C(C)C)nc(-c3cc(C(F)(F)F)cc(C(F)(F)F)c3)nc2c(OC)c1OC [Example 63]', 1),
  ('COc1cc2nc(-c3ccc(Cl)cc3)nc(N3C[C@@H](C)O[C@@H](C)C3)c2cc1OC [Example 90]', 0),
  ('COc1cc2nc(-c3ccc(C(F)(F)F)cc3)nc(N3CCN(CCO)CC3)c2cc1OC [Example 43]', 1);

###

Measurement Kind: melting point (°C)

INSERT INTO assay_data (compound, measurement_kind, meas_value) VALUES
  ('COc1cc2nc(-c3ccc(Cl)cc3)nc(N3CC[S+]([O-])CC3)c2cc1OC', 'melting point', 226),
  ('COc1cc2nc(-c3ccc(Cl)cc3)nc(NCCc3ccc(Oc4ccccc4)cc3)c2cc1OC', 'melting point', 216),
  ('COc1cc2c(N[C@H]3CC[C@H](O)CC3)nc(-c3ccc(Cl)cc3)nc2c(OC)c1OC', 'melting point', 199),
  ('COc1cc2nc(-c3ccc(Cl)cc3)nc(N3CCN(CC(=O)N4CCOCC4)CC3)c2cc1OC', 'melting point', 198),
  ('COc1cc2nc(-c3ccc(Cl)cc3)nc(N3CC(C)OC(C)C3)c2cc1OC (centres unmarked)', 'melting point', 165),
  ('COc1cc2nc(-c3ccc(Cl)cc3)nc(NCCCn3ccnc3)c2cc1OC', 'melting point', 242),
  ('COc1cc2nc(-c3ccc(Cl)cc3)nc(N3CCC(C(N)=O)CC3)c2cc1OC', 'melting point', 225),
  ('COc1cc2nc(-c3ccc(C)cc3)nc(N3CC(C)OC(C)C3)c2cc1OC (centres unmarked)', 'melting point', 177);

###

# Target Or Test System: soluble guanylate cyclase (sGC) (Bos taurus, UniProt P16068+P19687)
# Construct: The sGC employed had been isolated from bovine lung; from tissue; host or cells: bovine lung
# Sequence (P19687 1-691): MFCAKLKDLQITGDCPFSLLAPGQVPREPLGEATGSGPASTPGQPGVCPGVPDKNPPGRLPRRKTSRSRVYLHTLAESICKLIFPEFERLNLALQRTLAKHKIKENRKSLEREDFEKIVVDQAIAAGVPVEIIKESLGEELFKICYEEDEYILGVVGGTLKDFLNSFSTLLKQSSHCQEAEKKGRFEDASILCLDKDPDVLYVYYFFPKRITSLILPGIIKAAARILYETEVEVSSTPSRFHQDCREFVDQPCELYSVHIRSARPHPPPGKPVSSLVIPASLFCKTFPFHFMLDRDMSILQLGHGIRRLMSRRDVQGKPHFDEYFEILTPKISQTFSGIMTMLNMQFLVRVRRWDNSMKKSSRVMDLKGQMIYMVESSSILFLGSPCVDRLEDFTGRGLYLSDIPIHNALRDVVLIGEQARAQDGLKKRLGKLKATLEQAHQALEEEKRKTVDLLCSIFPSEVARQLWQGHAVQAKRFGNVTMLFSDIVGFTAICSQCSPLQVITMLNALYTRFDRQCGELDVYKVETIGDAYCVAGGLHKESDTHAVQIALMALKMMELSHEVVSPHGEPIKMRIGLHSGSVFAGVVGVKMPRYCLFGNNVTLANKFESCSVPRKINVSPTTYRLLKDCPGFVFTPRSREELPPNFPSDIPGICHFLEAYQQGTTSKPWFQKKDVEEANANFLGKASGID
# Sequence (P16068 1-619): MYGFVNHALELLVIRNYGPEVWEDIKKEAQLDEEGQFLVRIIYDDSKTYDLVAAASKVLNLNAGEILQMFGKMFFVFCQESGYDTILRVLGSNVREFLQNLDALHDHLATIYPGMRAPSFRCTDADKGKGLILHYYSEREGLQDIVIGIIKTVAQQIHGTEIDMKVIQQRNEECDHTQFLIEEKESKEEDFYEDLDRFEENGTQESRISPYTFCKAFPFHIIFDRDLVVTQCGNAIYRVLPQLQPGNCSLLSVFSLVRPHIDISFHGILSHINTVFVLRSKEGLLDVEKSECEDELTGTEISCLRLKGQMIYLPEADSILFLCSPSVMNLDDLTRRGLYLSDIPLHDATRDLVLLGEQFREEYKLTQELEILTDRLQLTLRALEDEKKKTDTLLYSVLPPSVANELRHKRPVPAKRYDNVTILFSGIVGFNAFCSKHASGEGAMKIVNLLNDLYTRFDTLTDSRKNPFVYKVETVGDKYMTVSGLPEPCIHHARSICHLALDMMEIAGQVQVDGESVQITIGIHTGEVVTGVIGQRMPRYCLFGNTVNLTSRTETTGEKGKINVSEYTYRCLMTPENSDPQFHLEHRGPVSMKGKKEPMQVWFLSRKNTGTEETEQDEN
# Experimental Protocol: Activation of the soluble guanylate cyclase (cGMP enzyme immunoassay)
# Format: biochemical
# Protocol Conditions: test substance 50 μM; sGC isolated from bovine lung; [cGMP] test substance/[cGMP] control (basal activity, solvent); 37° C., 15 to 20 minutes
Returns true (1) if the recorded n-fold Stimulation is greater than or equal to 6 n-fold, and false (0) otherwise.

INSERT INTO results (compound_smiles, label_class) VALUES
  ('COc1cc2c(N3CCN(CCO)CC3)nc(-c3ccc(Cl)cc3)nc2c(OC)c1OC', 'true (1)'),
  ('COc1cc2c(N3CCC(C(N)=O)CC3)nc(-c3ccc(Cl)cc3)nc2c(OC)c1OC', 'true (1)'),
  ('COc1cc2nc(-c3ccc(Cl)cc3)nc(N[C@H]3CC[C@H](O)CC3)c2cc1OC', 'true (1)'),
  ('COc1cc2nc(-c3ccc(Cl)cc3)nc(N(C)C)c2cc1OC', 'false (0)'),
  ('COc1cc2nc(-c3ccc(C(F)(F)F)cc3)nc(NCCO)c2cc1OC', 'false (0)'),
  ('COc1cc2c(N[C@H]3CC[C@H](O)CC3)nc(-c3ccc(Cl)cc3)nc2c(OC)c1OC', 'true (1)'),
  ('COc1cc2c(NCCCN3CCOCC3)nc(-c3ccc(Cl)cc3)nc2c(OC)c1OC.Cl', 'false (0)'),
  ('COc1cc2nc(-c3ccc(Cl)cc3)nc(NCC(N)=O)c2cc1OC', 'false (0)'),
  ('COc1cc2nc(-c3ccc(Cl)cc3)nc(NCCCO)c2cc1OC', 'false (0)'),
  ('COCCNc1nc(-c2ccc(Cl)cc2)nc2cc(OC)c(OC)cc12', 'false (0)'),
  ('COc1cc2nc(-c3ccc(Cl)cc3)nc(N3CCN(CCO)CC3)c2cc1OC', 'false (0)'),
  ('COc1cc2c(N3CCC(O)CC3)nc(-c3ccc(Cl)cc3)nc2c(OC)c1OC', 'true (1)'),
  ('COc1cc2c(N3CCN(Cc4ccccc4)CC3)nc(-c3ccc(Cl)cc3)nc2c(OC)c1OC', 'false (0)'),
  ('COc1cc2nc(-c3ccc(C)cc3)nc(NCc3cccnc3)c2cc1OC', 'true (1)'),
  ('COc1cc2nc(-c3ccc(Cl)cc3)nc(N3CCN(C)CC3)c2cc1OC.Cl', 'false (0)'),
  ('COc1cc2nc(-c3ccc(Cl)cc3)nc(NCc3cccnc3)c2cc1OC', 'false (0)'),
  ('COc1cc2nc(-c3ccc(C)cc3)nc(NC3CCCC3)c2cc1OC', 'true (1)'),
  ('COc1cc2nc(-c3ccc(C(F)(F)F)cc3)nc(NCc3cccnc3)c2cc1OC', 'false (0)'),
  ('COc1cc2nc(-c3ccc(C)cc3)nc(N3CCN(C)CC3)c2cc1OC', 'false (0)'),
  ('COc1cc2nc(-c3ccc(C)cc3)nc(NCCO)c2cc1OC', 'false (0)'),
  ('COc1cc2nc(-c3ccc(Cl)cc3)nc(NCCO)c2cc1OC', 'false (0)'),
  ('COc1cc2nc(-c3ccc(C)cc3)nc(N[C@H]3CC[C@H](O)CC3)c2cc1OC', 'true (1)'),
  ('COc1cc2nc(-c3ccc(Cl)cc3)nc(NCCOCCO)c2cc1OC', 'false (0)'),
  ('COc1cc2nc(-c3ccc(Cl)cc3)nc(N3CCN(CC(=O)NC(C)C)CC3)c2cc1OC', 'false (0)');

###

Here the recorded melting point is given for each entry.
Measurement Kind: melting point

INSERT INTO results (molecule, measurement_kind, meas_value) VALUES
  ('COc1cc2nc(-c3ccc(C(F)(F)F)cc3)nc(NCCO)c2cc1OC [Example 42]', 'melting point', '210 °C'),
  ('COc1cc2nc(-c3ccc(Cl)cc3)nc(N3CCSCC3)c2cc1OC [Example 74]', 'melting point', '214 °C'),
  ('COc1cc2nc(-c3ccc(Cl)cc3)nc(N3CCN(C)CC3)c2cc1OC.Cl [Example 17]', 'melting point', '249 °C'),
  ('COc1cc2nc(-c3ccc(Cl)cc3)nc(NCCOCCO)c2cc1OC [Example 33]', 'melting point', '188 °C'),
  ('COc1cc2nc(-c3ccc(Cl)cc3)nc(NCCCO)c2cc1OC [Example 32]', 'melting point', '187 °C'),
  ('COCCCNc1nc(-c2ccc(Cl)cc2)nc2cc(OC)c(OC)cc12 [Example 86]', 'melting point', '240 °C'),
  ('COCCNc1nc(-c2ccc(Cl)cc2)nc2c(OC)c(OC)c(OC)cc12 [Example 58]', 'melting point', '165 °C'),
  ('COc1cc2c(N3CCN(c4ccccn4)CC3)nc(-c3ccc(Cl)cc3)nc2c(OC)c1OC [Example 78]', 'melting point', '141 °C'),
  ('COc1cc2nc(-c3ccc(C)cc3)nc(N[C@H]3CC[C@H](O)CC3)c2cc1OC [Example 96]', 'melting point', '243 °C');
